# System: Gardnerella vaginalis ATCC 14018
# Procedure text: MIC, macro dilution method for bacteria in a solid medium
# Format: cell-based
# Protocol conditions: Gardnerella vaginalis ATCC 14018; Schaedler agar, microaerophilic, 37° C., 72 hours
Attribute measured: MIC value (mg/L)

Compound	Target or test system	Value reported
CCC[C@@H]1C[C@@H](C(=O)N[C@@H]([C@H]2O[C@H](SC)[C@H](O)[C@@H](O)[C@H]2O)[C@H](C)Cl)N(C)C1 [Clindamycin]	Gardnerella vaginalis ATCC 14018	1.95
O=C1CN(/N=C/c2ccc([N+](=O)[O-])o2)C(=O)N1 [Nitrofurantion, Nitrofurantoin]	Gardnerella vaginalis ATCC 14018	0.98
O=C1CN(/N=C/C=C/c2ccc([N+](=O)[O-])o2)C(=O)N1 [Furazidin]	Gardnerella vaginalis ATCC 14018	0.49
C[C@@H]1[C@H](O)[C@@H](C)/C=C/C=C/CC/C=C/C=C/C=C/C=C/C(O[C@H]2O[C@H](C)[C@@H](O)[C@H](N)[C@@H]2O)CC2O[C@](O)(CC(O)C(O)CCC(O)CC(O)CC(O)CC(=O)O[C@H]1C)CC(O)C2C(=O)O (stereo partly shown) [Nystatin]	Gardnerella vaginalis ATCC 14018	500
